B1: library; numbered along this chain (parent)
chain: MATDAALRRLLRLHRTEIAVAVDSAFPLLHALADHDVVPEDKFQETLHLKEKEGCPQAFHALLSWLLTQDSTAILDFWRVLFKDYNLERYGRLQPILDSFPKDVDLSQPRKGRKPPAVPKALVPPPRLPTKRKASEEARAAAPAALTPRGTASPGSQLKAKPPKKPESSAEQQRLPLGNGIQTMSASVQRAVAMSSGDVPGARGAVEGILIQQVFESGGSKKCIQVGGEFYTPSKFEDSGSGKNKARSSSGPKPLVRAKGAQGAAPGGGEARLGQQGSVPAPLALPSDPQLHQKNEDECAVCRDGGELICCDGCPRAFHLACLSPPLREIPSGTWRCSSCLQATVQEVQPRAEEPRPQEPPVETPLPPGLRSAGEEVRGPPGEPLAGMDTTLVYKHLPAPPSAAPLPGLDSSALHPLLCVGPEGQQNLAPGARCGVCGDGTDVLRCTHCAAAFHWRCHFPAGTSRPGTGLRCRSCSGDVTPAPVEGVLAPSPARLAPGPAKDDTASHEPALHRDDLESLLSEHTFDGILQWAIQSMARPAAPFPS

variants of: B1; assay: AIRE transcriptional activation functional score (insulin promoter-GFP; nonsense median 0, synonymous median 1) (normalised score); higher = higher AIRE activity (more reporter activation); conditions: with insulin promoter-GFP reporter in HEK293
reported property: AIRE transcriptional activation functional score

Prompt: I would be grateful if you could share the reported AIRE transcriptional activation functional score for "L87Y" .
Completion: -0.162

Prompt: Try this variant too: "Q225M"
Completion: -0.00432

Prompt: Try this variant too: "V192P"
Completion: 0.706

Prompt: Try this variant too: "C314H"
Completion: 0.752

Prompt: Try this variant too: "C299I"
Completion: 0.55

Prompt: Try this variant too: "D34E"
Completion: -2.11

Prompt: Try this variant too: "R79T"
Completion: -2.81

Prompt: Try this variant too: "L158W"
Completion: 1.22

Prompt: Try this variant too: "A144P"
Completion: 1.65

Prompt: Try this variant too: "H523Q"
Completion: 0.954

Prompt: Try this variant too: "Q157V"
Completion: 0.829

Prompt: Try this variant too: "Q189R"
Completion: 0.813

Prompt: Try this variant too: "H48Q"
Completion: 1.5

Prompt: Try this variant too: "E363A"
Completion: 1.1

Prompt: Try this variant too: "E375Y"
Completion: 1.51

Prompt: Try this variant too: "Q425T"
Completion: 0.973

Prompt: Try this variant too: "S491T"
Completion: 0.571

Prompt: Try this variant too: "R471L"
Completion: 0.799

Prompt: Try this variant too: "G91F"
Completion: 0.132

Prompt: Try this variant too: "L323G"
Completion: 1.16

Prompt: Try this variant too: "V362F"
Completion: 0.981

Prompt: Try this variant too: "P315C"
Completion: 0.985
